- test: in vitro
- assay.conditions: human, plasma
assay.readout: fraction unbound
# answer = number (no unit)

In: Look up and state reported fraction unbound for CCOCCn1nc(C(=O)NS(C)(=O)=O)c2nc(N(C)CC)nc(Nc3cc(C)ccn3)c21
Out: 0.007

====

assay.readout: pIC50
Lab note: report pIC50 as minus log10 of the concentration in molar units, number only.

In: Determine reported pIC50 for CCOCCn1nc(C(=O)NS(C)(=O)=O)c2nc(N(C)CC)nc(Nc3cc(C)ccn3)c21 ; test system: human PDE11 (Homo sapiens).
Sequence (Q9HCR9 whole entry): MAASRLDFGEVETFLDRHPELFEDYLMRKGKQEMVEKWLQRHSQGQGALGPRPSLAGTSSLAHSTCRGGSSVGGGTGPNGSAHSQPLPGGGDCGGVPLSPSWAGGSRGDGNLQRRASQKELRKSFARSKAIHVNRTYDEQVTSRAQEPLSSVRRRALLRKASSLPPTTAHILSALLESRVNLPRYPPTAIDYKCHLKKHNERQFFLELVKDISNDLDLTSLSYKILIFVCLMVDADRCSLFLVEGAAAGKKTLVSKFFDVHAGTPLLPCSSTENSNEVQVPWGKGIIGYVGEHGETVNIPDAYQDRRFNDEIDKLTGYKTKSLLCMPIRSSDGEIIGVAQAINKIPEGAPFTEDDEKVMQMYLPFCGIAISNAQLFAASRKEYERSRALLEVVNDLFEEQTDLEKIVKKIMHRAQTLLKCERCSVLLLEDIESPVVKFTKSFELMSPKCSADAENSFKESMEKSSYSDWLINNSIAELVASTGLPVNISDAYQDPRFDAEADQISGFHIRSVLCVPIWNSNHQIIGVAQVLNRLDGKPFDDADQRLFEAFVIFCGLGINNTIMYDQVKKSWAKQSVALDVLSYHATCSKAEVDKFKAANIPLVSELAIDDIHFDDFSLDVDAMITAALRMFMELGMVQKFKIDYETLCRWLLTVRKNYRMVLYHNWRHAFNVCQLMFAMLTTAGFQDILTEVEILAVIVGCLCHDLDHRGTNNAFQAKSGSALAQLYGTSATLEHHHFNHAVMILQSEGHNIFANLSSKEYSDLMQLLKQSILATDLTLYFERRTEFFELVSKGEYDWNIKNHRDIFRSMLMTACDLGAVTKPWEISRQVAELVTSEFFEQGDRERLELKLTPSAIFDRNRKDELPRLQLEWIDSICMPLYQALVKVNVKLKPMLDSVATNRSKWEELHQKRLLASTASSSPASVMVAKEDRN
Out: 7.58
